- assayed-system: Disintegrin and metalloproteinase domain-containing protein 10 (Homo sapiens) (UniProt O14672)
- Sequence (O14672 214-748 limits assumed): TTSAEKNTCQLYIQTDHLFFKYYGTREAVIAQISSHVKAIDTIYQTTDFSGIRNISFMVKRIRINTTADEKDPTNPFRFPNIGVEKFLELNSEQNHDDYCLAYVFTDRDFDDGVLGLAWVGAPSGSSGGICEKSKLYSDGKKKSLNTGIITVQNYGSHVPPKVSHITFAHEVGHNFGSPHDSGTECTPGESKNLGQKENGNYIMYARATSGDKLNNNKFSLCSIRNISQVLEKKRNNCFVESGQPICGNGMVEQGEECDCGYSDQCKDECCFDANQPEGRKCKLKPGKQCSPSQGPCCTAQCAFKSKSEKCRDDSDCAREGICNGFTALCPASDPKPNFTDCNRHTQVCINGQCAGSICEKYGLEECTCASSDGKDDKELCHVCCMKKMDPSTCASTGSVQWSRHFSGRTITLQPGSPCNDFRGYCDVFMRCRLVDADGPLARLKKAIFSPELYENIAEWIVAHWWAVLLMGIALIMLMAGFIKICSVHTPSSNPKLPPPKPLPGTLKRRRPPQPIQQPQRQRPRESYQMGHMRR
- experiment-notes: blockers of ADAM10 peptide cleavage – biochemical, QFRET, HTS, primary screen (AID 720582);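 further: 0% = DMSO wells while the 100% control is not disclosed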
- assay-conditions: recombinant ADAM10, EDANS/DABCYL FRET peptide cleavage, 3 h; at 7 µM
Screen size: about 370,000 compounds; about 2,300 (0.62%) were called active.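 How the source made its calls: active means inhibition above a per-campaign cutoff equal to the mean of compounds falling between control-based bounds plus 3 SD (cut at about 20% in these data); inactive means the rest.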 The entries come from a sample that favours actives as a whole.
Parameter call: string, one of True (active), False (inactive)

Some solved cases for reference:
compound | qualitative-label
O=C(COC(=O)Cc1ccc(Br)cc1)Nc1ccc(N2CCOCC2)cc1 | False
O=C(NCC1COc2ccccc2O1)c1ccc(NC(=O)c2cc(F)ccc2F)cc1 (stereo not drawn) | False
O=C(C[C@H]1C(=O)N(c2ccc(F)c(F)c2)C[C@@H]1Cc1ccccc1)Nc1ccccc1 | True
CCOC(=O)c1ccc(NC(=O)c2nc[nH]c2C(=O)N[C@@H](CCCCNC(=O)OC(C)(C)C)C(=O)OC(C)(C)C)cc1 | False
O=S(=O)(c1ccccc1)N(Cc1cccc(F)c1)c1ccccc1 | True

For O=C(NCc1cccs1)C1CCN(S(=O)(=O)c2ccccc2[N+](=O)[O-])CC1 , which call appears in the assay record?
False

For O=C(CSc1nnc(-c2ccccn2)n1-c1ccc(Cl)cc1)Nc1ccccc1-c1ccccc1 , which call appears in the assay record?
False

For COC(=O)C1NN=C(C(=O)c2ccc(Br)cc2)C1c1cccc(Br)c1 (stereo not drawn) , which call appears in the assay record?
True

---

- assayed-system: Disintegrin and metalloproteinase domain-containing protein 10 (Homo sapiens) (UniProt O14672)
- experiment-notes: blockers of ADAM10 peptide cleavage – biochemical, QFRET, HTS, primary screen (AID 720582);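 further: 0% = DMSO wells while the 100% control is not disclosed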
- assay-conditions: recombinant ADAM10, EDANS/DABCYL FRET peptide cleavage, 3 h; at 7 µM; hits give high values
About 2,300 (0.62%) of roughly 370,000 compounds were called active. The entries come from a sample that favours actives as a whole.
readout-label: inhibition (%)
// return numeric value only (unit: %, not printed)

Below: 2 compounds and their reported inhibition.
smiles-representation | inhibition, %
Cc1ccc(-n2c(SCC(=O)Nc3cccc4ccccc34)nnc2-c2ccco2)cc1 | 9.63
CSc1nccc(NC(=O)c2ccc(C(C)(C)C)cc2)n1 | 10.6

inhibition in this record for C=CS(=O)(=O)N(Cc1nnn(Cc2ccccc2)c1Br)[C@H](C(=O)OC)C(C)C : 5.21
